Target: T1, LexA-Cdk3 bait (human, UniProt Q00526 1-305, limits assumed)
T1 construct: also called human Cdk3; not shown: bacterial LexA protein
T1 sequence (Q00526 whole entry): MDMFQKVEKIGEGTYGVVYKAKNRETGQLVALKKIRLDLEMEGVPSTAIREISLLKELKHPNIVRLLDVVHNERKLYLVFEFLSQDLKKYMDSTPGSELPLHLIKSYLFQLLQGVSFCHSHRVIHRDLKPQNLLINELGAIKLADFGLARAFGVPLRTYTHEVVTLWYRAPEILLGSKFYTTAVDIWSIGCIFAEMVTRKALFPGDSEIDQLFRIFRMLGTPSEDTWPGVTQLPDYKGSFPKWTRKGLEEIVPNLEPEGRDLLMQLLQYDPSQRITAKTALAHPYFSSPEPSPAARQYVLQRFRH
Assay: yeast interaction trap mating assay, lacZ reporter on Xgal
measured-parameter: binding result

[ask] Field request: binding result | item: pep2 (designed binder, not shown: small tags and cut ends, Peptide loop sits in the TrxA active-site loop; flanking Cys33 and Cys36 may form a disulfide, the purified His6 form is m40) MSDKIIHLTDDSFDTDVLKADGAILVDFWAEWCGPLVCKSYRLDWEAGALFRSLFGPCKMIAPILDEIADEYQGKLTVAKLNIDQNPGTAPKYGIRGIPTLLLFKNGEVAATKVGALSKGQLKEFLDANLA
[reply] no binding

[ask] Same again, this time with pep8 (designed binder, not shown: large carriers; small tags and cut ends, peptide loop embedded in the thioredoxin active-site loop between Cys33 and Cys36 (may form a disulfide), The purified His6 form is m43) MSDKIIHLTDDSFDTDVLKADGAILVDFWAEWCGPYSFVHHGFFNFRVSWREMLAGPCKMIAPILDEIADEYQGKLTVAKLNIDQNPGTAPKYGIRGIPTLLLFKNGEVAATKVGALSKGQLKEFLDANLA
[reply] no binding

[ask] Same again, this time with pep5 (designed binder, not shown: large carriers; small tags and cut ends, peptide loop embedded in the thioredoxin active-site loop between Cys33 and Cys36 (may form a disulfide), the purified His6 form is m42) MSDKIIHLTDDSFDTDVLKADGAILVDFWAEWCGPSVRMRYGIDAFFDLGGLLHGGPCKMIAPILDEIADEYQGKLTVAKLNIDQNPGTAPKYGIRGIPTLLLFKNGEVAATKVGALSKGQLKEFLDANLA
[reply] binds

[ask] Same again, this time with pep12 (FIG. 4B numbering), thioredoxin prey fusion (designed binder, not shown: large carriers) MSDKIIHLTDDSFDTDVLKADGAILVDFWAEWCGPRPLTGRWVVWGRRHEECGLTGPCKMIAPILDEIADEYQGKLTVAKLNIDQNPGTAPKYGIRGIPTLLLFKNGEVAATKVGALSKGQLKEFLDANLA
[reply] no binding
